# Tested on: Mus musculus
# TEST_DETAILS: Anticonvulsant activity in Kunming mouse assessed as protection against MES-induced seizures at 30 mg/kg, ip after 0.5 hrs by MES test
# Format: functional, organism-based
# Parameters: dose 30 mg/kg
The source made the active and inactive calls. The calls are words filed in the database; no cut-off is given here.
Could you please pick one outcome from this set? 1.0 for active, 0.0 for inactive

Could you please tell me the result logged for "Clc1ccc(Cn2cnc3c(-n4cncn4)ncnc32)cc1" in this assay? 0.0

Subsequent entry: "Cc1ccc(Cn2cnc3c(-n4cncn4)ncnc32)cc1" 0.0

Subsequent entry: "CCCCCCCCCCCCn1cnc2c(-n3cncn3)ncnc21" 0.0

Subsequent entry: "CCCCCCCCCCn1cnc2c(-n3cncn3)ncnc21" 1.0

Subsequent entry: "CCCCCn1cnc2c(-n3cncn3)ncnc21" 0.0

Subsequent entry: "Fc1ccccc1Cn1cnc2c(Sc3ncn[nH]3)ncnc21" 0.0

Subsequent entry: "Cc1ccc(Cn2cnc3c2ncn2cnnc32)cc1" 0.0

Subsequent entry: "CCCCCCCCCCn1cnc2c(Sc3ncn[nH]3)ncnc21" 0.0

Subsequent entry: "Fc1ccccc1Cn1cnc2c(-n3ccnc3)ncnc21" 0.0

Subsequent entry: "Fc1ccccc1Cn1cnc2c(-n3cccn3)ncnc21" 0.0

Subsequent entry: "Fc1ccc(Cn2cnc3c(-n4cncn4)ncnc32)cc1" 0.0

Subsequent entry: "CCCCCCCCCCn1cnc2c(-n3cnc(C)c3)ncnc21" 0.0

Subsequent entry: "Cc1cn(-c2ncnc3c2ncn3Cc2ccccc2F)cn1" 0.0

Subsequent entry: "CCCCCCCCn1cnc2c1ncn1cnnc21" 0.0

Subsequent entry: "COc1ccc(Cn2cnc3c2ncn2cnnc32)cc1" 0.0

Subsequent entry: "CCCCCCCCCCn1cnc2c1ncn1cnnc21" 0.0

Subsequent entry: "CCCCCCn1cnc2c1ncn1cnnc21" 0.0

Subsequent entry: "Fc1ccccc1Cn1cnc2c(-n3cncn3)ncnc21" 1.0

Subsequent entry: "CCCCn1cnc2c1ncn1cnnc21" 0.0

Subsequent entry: "COc1ccc(Cn2cnc3c(-n4cncn4)ncnc32)cc1" 0.0

Subsequent entry: "Fc1ccccc1Cn1cnc2c1ncn1cnnc21" 0.0

Subsequent entry: "Clc1cccc(Cn2cnc3c(-n4cncn4)ncnc32)c1" 0.0

Subsequent entry: "CCCCCCCCCCn1cnc2c(-n3cccn3)ncnc21" 0.0

Subsequent entry: "CCCCCCCCCCn1cnc2c(-n3ccnc3)ncnc21" 0.0

Subsequent entry: "CCCCCCCn1cnc2c1ncn1cnnc21" 0.0

Subsequent entry: "Clc1cccc(Cn2cnc3c2ncn2cnnc32)c1" 0.0

Subsequent entry: "Clc1ccccc1Cn1cnc2c(-n3cncn3)ncnc21" 0.0
